Reported switch fluorescence ratio is given for each of the following sequences.
Test system: ATP;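 also: ATP exposure 15 min at 22 °C before imaging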
Experiment: switch fluorescence ratio, 500 uM ATP over buffer (Cy3 cluster intensity, sum of 5 cycles each) (fold (ratio)); higher = stronger signal-on switching upon ATP binding; sequences stand for … in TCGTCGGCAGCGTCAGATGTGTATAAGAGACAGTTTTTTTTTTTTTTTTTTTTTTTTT…TC
Conditions: aptamer strand: ATP DNA aptamer (quencher-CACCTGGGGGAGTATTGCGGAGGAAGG + anchor), 100 nM annealed; ATP concentration: 500 uM

{"item-sequence": "CATAGGTAGT", "tested-target": "ATP", "switch fluorescence ratio": 0.981}
{"item-sequence": "ATATTCAGGG", "tested-target": "ATP", "switch fluorescence ratio": 1.01}
{"item-sequence": "CGGTGACTGC", "tested-target": "ATP", "switch fluorescence ratio": 1.02}
{"item-sequence": "TTTCACACGT", "tested-target": "ATP", "switch fluorescence ratio": 1.02}
{"item-sequence": "TTTTCAAGTG", "tested-target": "ATP", "switch fluorescence ratio": 1}
{"item-sequence": "AAAGTATTAA", "tested-target": "ATP", "switch fluorescence ratio": 1.01}
{"item-sequence": "GGCCCCAAAT", "tested-target": "ATP", "switch fluorescence ratio": 0.982}
{"item-sequence": "TGGTTCGGAA", "tested-target": "ATP", "switch fluorescence ratio": 1.02}
{"item-sequence": "GGTCCAAAAG", "tested-target": "ATP", "switch fluorescence ratio": 1.01}
{"item-sequence": "TTTATTTTCG", "tested-target": "ATP", "switch fluorescence ratio": 1.02}
{"item-sequence": "GTGGAATAAT", "tested-target": "ATP", "switch fluorescence ratio": 0.981}
{"item-sequence": "AATTTAGGGA", "tested-target": "ATP", "switch fluorescence ratio": 1}
{"item-sequence": "TTGCGACGGT", "tested-target": "ATP", "switch fluorescence ratio": 1.02}
{"item-sequence": "ATTTTATTGT", "tested-target": "ATP", "switch fluorescence ratio": 1}
{"item-sequence": "TTATAAAGAT", "tested-target": "ATP", "switch fluorescence ratio": 0.992}
{"item-sequence": "AATCTTTGGA", "tested-target": "ATP", "switch fluorescence ratio": 1}
{"item-sequence": "GGGTTAAACT", "tested-target": "ATP", "switch fluorescence ratio": 0.987}
{"item-sequence": "TATTGAGCTG", "tested-target": "ATP", "switch fluorescence ratio": 0.977}
{"item-sequence": "GGGGTTAACT", "tested-target": "ATP", "switch fluorescence ratio": 0.975}
{"item-sequence": "TCATCTAGTG", "tested-target": "ATP", "switch fluorescence ratio": 1}

Reference source: the supplement of paper PMC10126150
